Give measured Selectivity Ki Ratio σ2/σ1 for each item. Keep answers brief.
# assayed target: σ1 receptors (Mus musculus, UniProt O55242)
# Sequence (O55242 whole entry): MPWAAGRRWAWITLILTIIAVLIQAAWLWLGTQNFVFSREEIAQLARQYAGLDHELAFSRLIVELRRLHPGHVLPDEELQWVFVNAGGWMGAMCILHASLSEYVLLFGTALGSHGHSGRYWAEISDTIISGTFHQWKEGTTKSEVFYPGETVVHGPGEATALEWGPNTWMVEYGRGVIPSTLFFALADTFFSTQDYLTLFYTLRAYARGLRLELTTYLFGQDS
# method: In vitro σ1 receptor binding, [^3H]
# Set-up: species or system CD-1 mouse
# measurement context: CD-1 mouse whole brain membranes
Answers are plain numbers.

Which Selectivity Ki Ratio σ2/σ1 value is on record for COc1ccc(CCN2CCN(C/C=C/I)CC2)cc1OC [E-IA-DM-PE-PIPZE] ? 215

Hi, could you look up Selectivity Ki Ratio σ2/σ1 for each item in my list?
1. C=CCN1CCC2(C)c3cc(O)ccc3CC1C2C (single isomer, unassigned; (-)) [(−)-NANM, (−)-N-allylnormetazocine]
2. CC(C(O)c1ccc(O)cc1)N1CCC(Cc2ccccc2)CC1 (stereo not drawn) [Ifenprodil, ifenprodil (+)-tartrate]
3. C=CCN1CCC2(C)c3cc(O)ccc3CC1C2C (single isomer, unassigned; (+)) [(+)-NANM, (+)-N-allylnormetazocine]
4. CN1CCN(CCc2ccc(Cl)c(Cl)c2)CC1 [BD1063]

[2.6, 0.1, 608, 127]

* * *

# assayed target: σ2 receptors (Mus musculus)
# Sequence (Q8VD00 1-176): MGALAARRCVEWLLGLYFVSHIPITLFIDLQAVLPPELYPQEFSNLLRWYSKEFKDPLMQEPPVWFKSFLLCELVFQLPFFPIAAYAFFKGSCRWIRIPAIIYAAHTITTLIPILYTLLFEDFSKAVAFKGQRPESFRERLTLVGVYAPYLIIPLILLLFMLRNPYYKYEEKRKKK
# method: In vitro σ2 receptor binding, [^3H]DTG/
# Design: species or system CD-1 mouse
# measurement context: 3.0 nM [^3H]DTG/500 nM (+)pentazocine, 25 °C, 60 min
Give measured Sigma2 nH for each item. Keep answers brief.
Give bare numbers.

The examples below pair each entry with its known result.
Which Sigma2 nH value is on record for C=CCN1CCC2(C)c3cc(O)ccc3CC1C2C (single isomer, unassigned; (-)) [(−)-NANM, (−)-N-allylnormetazocine] ? 0.93

And C=CCN1CCC2(C)c3cc(O)ccc3CC1C2C (single isomer, unassigned; (+)) [(+)-NANM, (+)-N-allylnormetazocine] ? 0.98

And `CN1CCN(CCc2ccc(Cl)c(Cl)c2)CC1` ? 0.96

And `Cc1ccccc1NC(=N)Nc1ccccc1C` ? 0.88

Hi, could you look up Sigma2 nH for each item in my list?
1. CC(C(O)c1ccc(O)cc1)N1CCC(Cc2ccccc2)CC1 (stereo not drawn) [Ifenprodil, ifenprodil (+)-tartrate]
2. COc1ccc(CCN2CCN(C/C=C/I)CC2)cc1OC

1: 0.70; 2: 0.98

* * *

# assayed target: σ1 receptors (Mus musculus, UniProt O55242)
# method: In vitro σ1 receptor binding, [^3H]
# Parameters: species or system CD-1 mouse
Counter-ions that a name gives are not always drawn.
measure: pIC50
One number for each entry, as −log10 of the molar value.

The examples below pair each entry with its known result.
Which pIC50 value is on record for `Cc1ccccc1NC(=N)Nc1ccccc1C` ? 6.76

And COc1ccc2c(c1)[C@]13CCCC[C@@H]1[C@H](C2)N(C)CC3 [Dextromethorphan, dextromethorphan hydrobromide] ? 7.01

And CC(C(O)c1ccc(O)cc1)N1CCC(Cc2ccccc2)CC1 (stereo not drawn) [Ifenprodil, ifenprodil (+)-tartrate] ? 7.46

The record that follows has no pIC50 shown yet.
Which pIC50 value is on record for `CN1CCN(CCc2ccc(Cl)c(Cl)c2)CC1` ? 8.01

* * *

# assayed target: σ1 receptors (Mus musculus)
# method: In vitro σ1 receptor binding, [^3H]
# Parameters: species or system CD-1 mouse
# measurement context: read-out: Sigma1 IC50; 3.0 nM [^3H](+)pentazocine, 37 °C, 180 min
measure: IC50

The examples below pair each entry with its known result.
Which IC50 value is on record for C=CCN1CCC2(C)c3cc(O)ccc3CC1C2C (single isomer, unassigned; (-)) [(−)-NANM, (−)-N-allylnormetazocine] ? 3980 nM

And `COc1ccc(CCN2CCN(C/C=C/I)CC2)cc1OC` ? 10.4 nM

Further cases:
Which IC50 value is on record for C=CCN1CCC2(C)c3cc(O)ccc3CC1C2C (single isomer, unassigned; (+)) [(+)-NANM, (+)-N-allylnormetazocine] ? 20.6 nM

* * *

Give measured Sigma1 nH for each item. Keep answers brief.
# assayed target: σ1 receptors (Mus musculus)
# method: In vitro σ1 receptor binding, [^3H]
# Design: species or system CD-1 mouse
# measurement context: 3.0 nM [^3H](+)pentazocine, 37 °C, 180 min
Structures can show the parent of a compound that is named as a salt.
Numbers only.

The examples below pair each entry with its known result.
Which Sigma1 nH value is on record for CC(C(O)c1ccc(O)cc1)N1CCC(Cc2ccccc2)CC1 (stereo not drawn) [Ifenprodil, ifenprodil (+)-tartrate] ? 1.08

And COc1ccc2c(c1)[C@]13CCCC[C@@H]1[C@H](C2)N(C)CC3 [Dextromethorphan, dextromethorphan hydrobromide] ? 0.88

And C=CCN1CCC2(C)c3cc(O)ccc3CC1C2C (single isomer, unassigned; (-)) [(−)-NANM, (−)-N-allylnormetazocine] ? 1.09

And C=CCN1CCC2(C)c3cc(O)ccc3CC1C2C (single isomer, unassigned; (+)) [(+)-NANM, (+)-N-allylnormetazocine] ? 1.06

And CC(C)=CCN1CC[C@]2(C)c3cc(O)ccc3C[C@H]1[C@H]2C [(+)-Pentazocine, (+)-pentazocine] ? 1.09

Hi, could you look up Sigma1 nH for each item in my list?
1. CN1CCN(CCc2ccc(Cl)c(Cl)c2)CC1
2. Cc1ccccc1NC(=N)Nc1ccccc1C
3. COc1ccc(CCN2CCN(C/C=C/I)CC2)cc1OC

1.17
0.91
0.98
